Source listed as PubChem BioAssay.

Overview of reported composite z-score across a group of molecules:
testSummary: binders of probe aFST on microarray, primary screen, stem cell growth factor project, biochemical, small-molecule microarray, fluorescence 635/667 (AID 1086);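 also: score merges 667 nm fluorescence with signal-to-noise of each printed compound spot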
experimentalConditions: higher = more signal
testReadout: composite z-score

CCOC(=O)[C@H]1C/C=C/C[C@H](C(=O)OCC)C(=O)O[C@H]2[C@@H](OC)O[C@H](CO)[C@@H](OC(=O)Nc3ccc(OC)cc3)[C@@H]2OC1=O; 0.363
Cc1ccc(C(C)CC(O)C2C=CC3C(=O)N(c4ccccc4)C(=O)C3N2Nc2ccc(C(C)C)cc2)o1 (stereo not given); 0.992
C=CC[C@@]1(C(=O)O)N=C(c2ccc(OCCCO)cc2)O[C@@H]1c1ccccc1; -0.55
O=C1NCC(=O)N2[C@@H]1C[C@@H](C(=O)O)[C@H]2c1ccc(O)cc1; 0.0816
C=C1C2CC3C(=C4C(CO[C@@H]4[C@H]4CCCN4S(=O)(=O)c4ccccc4[N+](=O)[O-])C4C(=O)N(C)C(=O)C34)CC2C(=O)N1C (stereo not given in full); 0.174
CCCNC(=O)[C@@]1(c2ccc([N+](=O)[O-])cc2)CC(=O)N(C2CCCCC2)[C@@H]1c1ccc(CO)cc1I; 0.29
CC(C)CN1C(=O)[C@@]2(Cc3ccccc31)c1ccccc1C(=O)N(Cc1ccccc1C(F)(F)F)[C@H]2c1ccc(CO)cc1; 0.0594
CC(C)C[C@@H]1NC(=O)[C@H]2C[C@@H](C(=O)NCCCCCC[N+](C)(C)C)[C@@H](c3cccc(OCCO)c3)N2C1=O; -0.601
COCCOC(=O)N1C(=O)[C@@]2(c3cc(C#CC4(O)CCCCCC4)ccc31)[C@H](C(N)=O)[C@H]1C(=O)O[C@H](c3ccccc3)[C@H](c3ccccc3)N1[C@@H]2c1ccc(O)cc1; 0.33
O=C(O)[C@H](Cc1ccccc1)n1cc(-c2ccccn2)nn1; 0.321

---

testSummary: binders of probe aFGF10 on microarray, primary screen, stem cell growth factor project, biochemical, small-molecule microarray, fluorescence 635/667 (AID 1071);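 also: score merges 667 nm spot intensity and signal to noise from triplicate slides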
experimentalConditions: higher = more signal
Collected composite z-score values appear next to each entry.
testReadout: composite z-score

C=CCOC(=O)[C@@H]1[C@H]2C(=O)O[C@H](c3ccccc3)[C@H](c3ccccc3)N2[C@H](c2ccc(OCCOC(=O)[C@H]3C[C@H]4C(=O)N[C@@H](CCCCN(C)C)C(=O)N4[C@H]3c3cccc(OCCO)c3)cc2)[C@@]12C(=O)Nc1ccc(I)cc12; 0.526
C=C(CCCC)C(=O)CC[C@@H](OC(=O)c1ccccc1-c1ccccc1C(=O)O)c1cccc(OCCO)c1; 0.166
C=C(CCCC)/C(=C/C[C@@H](OC(=O)c1ccncc1)c1cccc(OCCO)c1)c1cnc2ccccc2c1; 1.03

---

testSummary: small-molecule microarray binders of probe aXIP, primary screen, biochemical, NeuroSMM set, 635/667 nm fluorescence (AID 1119);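 also: probe is the protein aXip251-270 applied at 1 µg/mL to compound-printed slides; binding of probe to printed compounds measured as 667 nm fluorescence plus signal to noise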
experimentalConditions: higher = more signal, called active from +8 up or from −8 down
Parameter: composite Z-score. Scope: all listed entries.
testReadout: composite Z-score

Cc1ccc(S[C@]2(C(=O)NCC(C)C)CC(=O)N(Cc3ccccc3Cl)[C@@H]2c2ccc(CO)cc2I)cc1; 0.0894
CC(=O)n1cc(C(O)C2C=CC3C(=O)N(c4ccccc4)C(=O)C3N2Nc2ccccc2)c2ccccc21 (centres undefined); 0.197
CC(C)(C)OC(=O)CC[C@]1(C(=O)O)N=C(c2ccc(OCCCO)cc2)O[C@H]1c1ccccc1CN=[N+]=[N-]; -0.209
C=CC[C@]12N=C(c3ccc(OCCCO)cc3)O[C@H]1c1ccccc1N(C)C2=O; 2.56
CC=CC(O)C1C=CC2C(=O)N(c3ccccc3)C(=O)C2N1Nc1ccccc1 (centres undefined); 0.454
CCCC[C@@H]1C[C@H]1[C@@H](NC(=O)c1ccccc1)c1ccc(Cl)cc1; 0.0169
[N-]=[N+]=NCc1ccccc1C[C@]1(C(=O)NCC(O)CO)N=C(c2ccc(OCCCO)cc2)O[C@H]1c1ccccc1CN=[N+]=[N-] (some centres undefined); 0.496
C=CC[C@@]12N=C(c3ccc(OCCCO)cc3)O[C@@H]1c1ccccc1N(CCS(=O)(=O)c1ccccc1)C2=O; -0.32
CCOC(=O)[C@H]1C/C=C/C[C@H](C(=O)OCC)C(=O)O[C@H]2[C@@H](OC)O[C@H](CO)[C@@H](OC(=O)Nc3ccc(OC)cc3)[C@@H]2OC1=O; 0.937
Cc1ccc(F)cc1S(=O)(=O)N[C@@H]1CCN(Cc2ccc(OC(C)C)cc2)C1; -0.491
O=C(NC1CC1)[C@@H]1c2ccccc2C(=O)N(Cc2ccccc2)[C@H]1c1ccc(CO)cc1; 0.081
C=CC[C@@]1(C(=O)O)N=C(c2ccc(OCCCO)cc2)O[C@@H]1c1ccccc1; 1.76
O=C(O)[C@H](Cc1ccccc1)n1cc(-c2ccccn2)nn1; -0.341
COCCOC(=O)N1C(=O)[C@@]2(c3cc(C#Cc4ccc(OC)cc4)ccc31)[C@H](C(=O)N1CCN(c3ncccn3)CC1)[C@H]1C(=O)O[C@H](c3ccccc3)[C@H](c3ccccc3)N1[C@@H]2c1ccccc1OCCO; 0.131
COCCOC(=O)N1C(=O)[C@@]2(c3cc(C#CC4=CCCCC4)ccc31)[C@H](c1ccccc1OCCO)N1[C@H](c3ccccc3)[C@H](c3ccccc3)OC(=O)[C@H]1[C@@H]2C(=O)N1CCc2cc(OC)c(OC)cc2C1; 0.0781
C=CCOC(=O)[C@H]1[C@@H]2C(=O)O[C@@H](c3ccccc3)[C@@H](c3ccccc3)N2[C@@H](c2ccc(OCCOC(=O)[C@H]3C[C@H]4C(=O)N[C@@H](Cc5ccccc5)C(=O)N4[C@H]3c3ccc(O)cc3)cc2)[C@]12C(=O)Nc1ccc(I)cc12; 0.341
O=c1cccc(-c2cccc(Cl)c2)o1; 1.25
C=C(COC)/C(=C/C[C@@H](OC(=O)c1ccncc1)c1ccc(OCCO)cc1)c1cnc2ccccc2c1; -0.41
CC=CC(O)C1C=CC2C(=O)N(C)C(=O)C2N1N1CCCCC1 (centres undefined); 0.298
O=C1OCC=C[C@H]2OC34C=CCN(Cn5nnc6ccccc65)C(=O)[C@H]3N(CCCCCCO)C(=O)[C@@H]4[C@@H]12 (some centres undefined); 0.648
CN(C)CCCCNC(=O)[C@H]1C[C@H]2C(=O)N[C@@H](CCCCN(C)C)C(=O)N2[C@H]1c1cccc(OCCO)c1; -1
[N-]=[N+]=NCc1ccccc1C[C@@]1(C(N)=O)N=C(c2ccc(OCCCO)cc2)O[C@@H]1c1ccccc1CN=[N+]=[N-]; 1.22
C=C[C@@H](C)[C@H](OC(=O)Nc1ccc(SC)cc1)c1ccc(OCCO)cc1; -0.109
NCCCCCCNC(=O)[C@@H]1C[C@@H]2C(=O)N3CCC[C@H]3C(=O)N2[C@@H]1c1ccc(O)cc1; -0.259

---

Quick list: composite z-score per entry.
testSummary: compound binding in COS7 lysate, probe aLAP1, primary screen, cell lysate, small-molecule microarray (AID 1124);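 also: lysate comes from COS7 cells expressing LAP1 and is applied at 0.3 µg/mL; score merges spot fluorescence near 667 nm with signal-to-noise over triplicate slides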
experimentalConditions: probe aLAP1, fluorescence, higher = more signal
testReadout: composite z-score

C=CCC(OC(C)=O)[C@@H]1[C@@H](N(Cc2cc3ccccc3o2)C(=O)Cc2ccc(F)cc2)c2cc(OCCCO)ccc2N1C(=O)c1ccc2ccccc2n1 (some centres not stated); 0.104
Cc1ccc(S[C@]2(C(=O)O)CC(=O)N(Cc3ccccc3Cl)[C@@H]2c2ccc(CO)cc2)cc1; 0.591
COCCOC(=O)N1C(=O)[C@@]2(c3cc(C#CC4=CCCCC4)ccc31)[C@H](c1ccc(O)cc1)N1[C@H](c3ccccc3)[C@H](c3ccccc3)OC(=O)[C@H]1[C@@H]2C(=O)Nc1nc2ccccc2s1; 0.657
C=CCOC(=O)[C@@H]1[C@H]2C(=O)O[C@H](c3ccccc3)[C@H](c3ccccc3)N2[C@H](c2ccc(OCCOC(=O)[C@H]3C[C@H]4C(=O)N[C@@H](CCCCN(C)C)C(=O)N4[C@H]3c3cccc(OCCO)c3)cc2)[C@@]12C(=O)Nc1ccc(I)cc12; 0.168
CCOC(=O)C[C@H]1[C@H](OC(=O)c2ccccc2-c2ccccc2)[C@@H](NC(=O)c2ccc3ccccc3n2)c2cc(OCCCO)ccc2N1C(=O)c1ccc2ccccc2n1; -0.283
CCOC(=O)[C@@H]1[C@@H]2C(=O)N(CC)C(=O)[C@@H]2C[C@@H]1Sc1ccccc1; 0.68
[N-]=[N+]=Nc1ccccc1C[C@@]1(C(=O)O)N=C(c2ccc(OCCCO)cc2)O[C@@H]1c1ccccc1; 0.45
C=CC[C@]1(C(=O)N(C)C)N=C(c2ccc(OCCCO)cc2)O[C@H]1c1ccccc1N=[N+]=[N-]; 0.55
C=C(CCCC)/C(=C/C[C@@H](OC(=O)c1ccncc1)c1cccc(OCCO)c1)c1cnc2ccccc2c1; 0.327
C=C(COC)/C(=C/C[C@@H](OC(=O)c1ccncc1)c1ccc(CO)o1)c1cnc2ccccc2c1; 0.589
CCOC(=O)C[C@H]1[C@H](OC(=O)c2ccc(-c3ccccc3)cc2)[C@@H](NC(=O)c2ccc3ccccc3c2)c2cc(OCCCO)ccc2N1C(=O)c1ccc2ccccc2n1; -0.0403
COc1ccc([Si](C)(C)[C@H]2[C@H](CC(=O)N3Cc4ccccc4C[C@H]3CO)O[C@@]3(C(=O)N(Cc4cccc(N5CCCCC5=O)c4)c4ccccc43)[C@@H]2C)cc1; 0.0263
COCCOC(=O)N1C(=O)[C@@]2(c3cc(C#CC4=CCCCC4)ccc31)[C@H](C(=O)N1CCN(c3ncccn3)CC1)[C@H]1C(=O)O[C@H](c3ccccc3)[C@H](c3ccccc3)N1[C@@H]2c1ccc(O)cc1; 0.615
COCCCNC(=O)[C@@]1(Sc2ccc(C)cc2)CC(=O)N(C2Cc3ccccc3C2)[C@@H]1c1ccc(CO)cc1I; 0.297
C=CCOC(=O)[C@@H]1[C@H]2C(=O)O[C@H](c3ccccc3)[C@H](c3ccccc3)N2[C@H](c2ccc(OCCOC(=O)[C@H]3C[C@H]4C(=O)N[C@@H](CCCC[N+](C)(C)C)C(=O)N4[C@H]3c3ccc(O)cc3)cc2)[C@@]12C(=O)Nc1ccc(I)cc12; 0.577
CC(C)(C)OC(=O)CC[C@]1(C(=O)O)N=C(c2ccc(OCCCO)cc2)O[C@H]1c1ccccc1; 0.448
CN(C)CCCCNC(=O)[C@H]1C[C@H]2C(=O)N[C@@H](CCCCN(C)C)C(=O)N2[C@H]1c1cccc(OCCO)c1; 0.518
